Target: MAPK14 (UniProt Q16539)
Sequence (Q16539 whole entry, looked up): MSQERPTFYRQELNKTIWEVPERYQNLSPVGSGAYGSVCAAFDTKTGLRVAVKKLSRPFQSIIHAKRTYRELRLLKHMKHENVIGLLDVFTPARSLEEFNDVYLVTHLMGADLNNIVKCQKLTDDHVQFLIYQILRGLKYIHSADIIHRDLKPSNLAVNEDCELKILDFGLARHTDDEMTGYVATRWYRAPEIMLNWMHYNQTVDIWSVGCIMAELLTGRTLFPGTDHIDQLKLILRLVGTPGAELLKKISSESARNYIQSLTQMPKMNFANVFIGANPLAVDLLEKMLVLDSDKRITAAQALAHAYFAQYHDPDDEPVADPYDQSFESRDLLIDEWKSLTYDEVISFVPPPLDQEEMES
measure-name: IC50 (µM)

(I) O=C(Nc1ccc2c(-c3c(-c4ccccn4)nn4c3CCC4)ccnc2c1)Nc1ccc2c(-c3c(-c4ccccn4)nn4c3CCC4)ccnc2c1
(II) Nc1ccc2c(-c3c(-c4ccccn4)nn4c3CCC4)ccnc2c1
(III) O=C(Nc1ccc2c(-c3c(-c4ccccn4)nn4c3CCC4)ccnc2c1)OCCO
(IV) CN(C)CC(=O)Nc1ccc2c(-c3c(-c4ccccn4)nn4c3CCC4)ccnc2c1
Put these in order: smallest IC50 first, largest last. Put the labels in the requested order and list them out.
III, IV, II, I
